Sourced from paper PMC8159111

Tested on: SARS-CoV-2 "NRC-03-nhCoV" virus
Experiment: Inhibitory concentration 50 (IC50) determination, reduction of virus-induced cytopathic effect in Vero-E6 cells
Assay type: cell-based
Conditions: Severe acute respiratory syndrome coronavirus 2, Vero C1008, 72 h, against NRC-03-nhCoV in Vero E6, 72 h, CPE reduction, crystal violet; unit not given in Table 4 and Figure 6, Figure 4 and text print μM; read-out: IC50 (half-maximal inhibitory concentration)
Procedure: The IC50 values for the tested compounds were determined as previously described, with minor modifications. […] The crystal violet dye was then dissolved using 100 μL of absolute methanol per well and the optical density of the color was measured at 570 nm using the Anthos Zenyth 200 rt plate reader (Anthos Labtec Instruments, Heerhugowaard, the Netherlands).
measurement_type: IC50 (µM)
Respond numerically; units are µM and should not be typed.

Query :: For the molecule C#CCOC(=O)C12CCC(C)(C)CC1C1=CCC3C4(C)CC(OCC#C)C(O)C(C)(C)C4CCC3(C)C1(C)CC2 (stereo not drawn) , what IC50 is on record?
Result :: 85.2

Query :: For the molecule CC1(C)CC[C@]2(C(=O)O)CC[C@]3(C)C(=CC[C@@H]4[C@@]5(C)C[C@@H](O)[C@H](O)C(C)(C)[C@@H]5CC[C@]43C)[C@@H]2C1 , what IC50 is on record?
Result :: 99.9

Query :: For the molecule C#CCOC(=O)[C@]12CCC(C)(C)CC1C1=CCC3[C@@]4(C)CC[C@H](O)C(C)(C)C4CC[C@@]3(C)[C@]1(C)CC2 (stereo partly drawn) , what IC50 is on record?
Result :: 42
